# Tested on: 786-0 renal
# protocol details: NCI-60 one-dose screen, 48 h (100 = growth as untreated, 0 = no growth, -100 = all killed)
# study conditions: 10 µM
# Protocol: Cells are grown in 96 well plates and exposed to the test compound for 48 hours. Compounds are tested at a single concentration, which is 10^-5 M for most compounds. The reported endpoint is percent growth (GI% or GIPRCNT), where numbers from 0 - 100% represent growth inhibition, and numbers from -100% - 0 represent cell death. For example, a value of 40 represents 60% growth inhibition. A value of 0 means no net growth occurred over the course of the experiment. […]
The panel holds about 83,000 compounds, 20% with a hit somewhere; the sample as a whole holds those more often.
quantity kind: growth (%)

# smiles string, uom, numeric result
rows = [
    ("Nc1nc(-c2ccccc2)cc(-c2cc3ccccc3nc2Cl)n1", "%", 89.7),
    ("CCOC(=O)c1c(CSc2ccccc2)n(C)c2cc(CN(C)C)c(O)c(CN(C)C)c12", "%", 45.3),
    ("Cc1cccc2cc(-c3cc(-c4ccccc4)nc(=S)[nH]3)c(Cl)nc12", "%", 97.7),
    ("O=C(CNc1nc(-c2ccccc2)cs1)Nc1ccc([N+](=O)[O-])cc1", "%", 16),
]

* * *

# System: U251 CNS
# protocol details: NCI-60 one-dose screen, 48 h (100 = growth as untreated, 0 = no growth, -100 = all killed)
# study conditions: 10 µM
# Experimental: Growth inhibition of the U251 human tumor cell line is measured as a screen for anti-cancer activity. Cells are grown in 96 well plates and exposed to the test compound for 48 hours. Compounds are tested at a single concentration, which is 10^-5 M for most compounds. The reported endpoint is percent growth (GI% or GIPRCNT), where numbers from 0 - 100% represent growth inhibition, and numbers from -100% - 0 represent cell death. For example, a value of 40 represents 60% growth inhibition. […]
This is part of a sample that, as a whole, favours compounds with a hit. Of some 83,000 tested, about 20% had one in any assay.
# class assignment by measured growth: low group: < 20%; middle group: ≥ 20% and < 40%; high group: ≥ 40%

# compound, target or system, label
data = [
    ("CCCS(=O)(=O)c1oc(-c2ccc(F)cc2)nc1S(=O)(=O)c1ccc(F)cc1", "U251 CNS", "middle group"),
    ("COc1ccc(C(C)=C(c2ccc(OCCCN(C)C)cc2)c2ccc(OCCCN(C)C)cc2)cc1", "U251 CNS", "low group"),
    ("COc1ccc(CN2[C@@H](C(=O)NCc3ccc(C(=O)NO)cc3)Cc3c([nH]c4ccccc34)[C@@H]2C2CC2)cc1", "U251 CNS", "middle group"),
    ("CCN1CCN(c2ccc(NC(=O)Nc3ccc(-c4cc(C(=O)NC(C)C)c5ncccc5n4)cc3)cc2C(F)(F)F)CC1", "U251 CNS", "low group"),
    ("Nc1nnc(-c2c[nH]c3ccc(F)cc23)c(-c2c[nH]c3ncccc23)n1", "U251 CNS", "middle group"),
    ("CN1C(=O)N(C)C2SC(N/N=C/c3ccccc3F)=NC21 (stereo not given)", "U251 CNS", "high group"),
    ("Cc1cccc2cc(-c3cc(-c4ccccc4)nc(=S)[nH]3)c(Cl)nc12", "U251 CNS", "high group"),
    ("O=C(CNc1nc(-c2ccccc2)cs1)Nc1ccc(Cl)cc1", "U251 CNS", "low group"),
    ("COc1cc(/C=C/C(=O)c2ccc(F)cc2)ccc1Oc1nc(Nc2ccc(F)cc2)nc(N(C)C)n1", "U251 CNS", "low group"),
    ("O=S(=O)(Nc1ncccn1)c1ccc(-n2c(-c3ccc(Br)cc3)nc(-c3ccccc3)c2-c2ccccc2)cc1", "U251 CNS", "middle group"),
    ("Clc1cccc(N/N=C/c2c[nH]c3ccccc23)n1", "U251 CNS", "middle group"),
    ("COc1ccc(-c2cc(C(=O)N=Nc3c(O)[nH]c4ccc(Br)cc34)c3ccccc3n2)cc1", "U251 CNS", "low group"),
    ("COc1cc(NC(=O)CSc2nnc(-c3ccc4nc(-c5ccc(Cl)cc5)[nH]c4c3)o2)cc(OC)c1OC", "U251 CNS", "high group"),
    ("Cc1ccc(/C(N)=N/c2sc(-c3ccccc3)nc2-c2ccccc2)cc1", "U251 CNS", "high group"),
    ("COc1ccc(C(=O)Nc2sc3c(c2C#N)CCC(=O)C3)cc1C(F)(F)F", "U251 CNS", "low group"),
    ("CN1CCN(c2ccc(Nc3nc(NCCCNC(=O)c4ccc(Cl)cc4)c4sccc4n3)cc2)CC1", "U251 CNS", "high group"),
    ("N#Cc1ccc(-c2nn(-c3ccc(C(=O)O)cc3)cc2CNc2cc(Cl)cc(Cl)c2)cc1", "U251 CNS", "middle group"),
    ("O=C1Nc2ccc(Cl)cc2/C1=C/c1ccc(OCc2ccccn2)cc1", "U251 CNS", "middle group"),
    ("O=C(Nc1nc2ccccc2s1)c1ccc(Br)cc1", "U251 CNS", "high group"),
]

* * *

growth reference
# Tested on: MOLT-4 leukemia
# protocol details: NCI-60 one-dose screen, 48 h (100 = growth as untreated, 0 = no growth, -100 = all killed)
# study conditions: 10 µM
# Experimental: Growth inhibition of the MOLT-4 human tumor cell line is measured as a screen for anti-cancer activity. Cells are grown in 96 well plates and exposed to the test compound for 48 hours. Compounds are tested at a single concentration, which is 10^-5 M for most compounds. The reported endpoint is percent growth (GI% or GIPRCNT), where numbers from 0 - 100% represent growth inhibition, and numbers from -100% - 0 represent cell death. For example, a value of 40 represents 60% growth inhibition. […]
The panel holds about 83,000 compounds, 20% with a hit somewhere; the sample as a whole holds those more often.

# compound, growth [%]
measured = [
    ("O=C1CCC(N2Cc3cc(NC(=O)COc4ccccc4)ccc3C2=O)C(=O)N1 (centres undefined)", 11.5),
    ("COc1cc(C2CC(c3ccccc3)=Nc3c(N)nc(N)nc3N2)ccc1Oc1nc(Nc2ccc(F)cc2)nc(N(C)C)n1 (centres undefined)", 1.45),
    ("COc1ccc(C(=O)/C=C/c2ccc(Cl)c(C(F)(F)F)c2)cc1S(N)(=O)=O", 8.09),
    ("CC(=O)C1=C(C)NC(SCC(=O)Nc2ccc(S(=O)(=O)Nc3cc(C)on3)cc2)=NC1c1ccccc1 (centres undefined)", 109),
    ("CC1=C2C(=C[C@@](C)(CO)[C@@H]2O)/C(=N\\N)[C@](C)(O)C12CC2", 3.48),
    ("Clc1ccc2c(N/N=C/c3c[nH]c4ccc(Br)cc34)ccnc2c1", -48.7),
    ("CN(C)CCNC(=O)OCCCCOc1cc(O)c2c(=O)cc(-c3ccccc3)oc2c1", -42.1),
    ("CN1CCc2c(sc3ncnc(N/N=C/c4cn(-c5ccccc5)nc4-c4ccc(Cl)cc4)c23)C1", 18.2),
    ("O=C(CSc1nnc(-c2c[nH]c3ccccc23)n1-c1ccccc1)c1ccc(Br)cc1", 92.2),
    ("COc1cc(OC(F)(F)F)ccc1C(=O)Nc1sc2c(c1C#N)CCC(=O)C2", 90.8),
    ("O=S(=O)(Nc1ncccn1)c1ccc(-n2c(-c3ccc(Br)cc3)nc(-c3ccccc3)c2-c2ccccc2)cc1", 22.4),
    ("Cc1noc2c(Cc3ccccc3)nn(CC(=O)N/N=C/c3ccc(Br)cc3)c(=O)c12", 93.9),
    ("O=C(NO)c1ccc(CNC(=O)[C@H]2Cc3c([nH]c4ccccc34)[C@H](c3ccc(Cl)cc3)N2)cc1", 5.97),
    ("O=C(c1ccccc1)n1ccc(-c2cc3cc(Br)ccc3oc2=O)n1", 14.8),
    ("N#Cc1c(-c2ccc(Cl)cc2)cc(-c2ccccc2)nc1OCc1ccccc1", 47.8),
    ("Cc1ccc(-c2cc(-c3cc4ccccc4nc3Cl)[nH]c(=O)n2)cc1", -21.6),
    ("COC[C@@H](CC(C)C)N=C1NC(=O)/C(=C/c2ccc3ncsc3c2)N1", 11.1),
    ("CN1C(=O)/C(=C/c2ccc3ncsc3c2)NC1=NC12CC3CC(CC(O)(C3)C1)C2", 4.59),
    ("NC1=NC(c2ccccc2Cl)N=C(Nc2nn[nH]n2)N1 (centres undefined)", 124),
]

* * *

# Tested on: NCI-H460 lung
# protocol details: NCI-60 one-dose screen, 48 h (100 = growth as untreated, 0 = no growth, -100 = all killed)
# study conditions: 10 µM
The panel holds about 83,000 compounds, 20% with a hit somewhere; the sample as a whole holds those more often.

# compound, growth / %
rows = [
    ("CN(C)c1cccc2c(S(=O)(=O)Nc3cccc(-c4csc(NC(=O)CCCCCN5CCN(c6cc7c(cc6F)C(=O)N(C6CCC(=O)NC6=O)C7=O)CC5)n4)c3)cccc12 (centres undefined)", 91.4),
    ("CCCCOc1ccc(Nc2nc3ccccc3nc2Nc2ccc(OCCCC)cc2)cc1", 60.1),
    ("COc1ccc(-c2nc(S(=O)(=O)c3ccccc3)c(S(C)(=O)=O)o2)cc1", 75.9),
    ("COc1ccc(C(=O)NC(=S)N2CCN(c3ncnc4c3cnn4-c3ccccc3)CC2)cc1", 55.8),
    ("O=C(CNc1nc(-c2ccccc2)cs1)Nc1ccc(Br)cc1", -61.5),
    ("CS(=O)(=O)Nc1ccc(-c2ccc3c(c2)ncn3-c2ccc(NC(=O)Nc3ccc(Br)cc3)cc2)cc1", 2.98),
    ("O=C(Nc1ccccc1)Nc1nc2ccccc2s1", 95.3),
    ("COc1ccc(-c2ccc(/C=N/NC(=O)c3[nH]c4ccc(Br)cc4c3-c3ccccc3)s2)cc1", 27.7),
    ("CN1CCc2c(sc3ncnc(N/N=C/c4cn(-c5ccccc5)nc4-c4ccc(Cl)cc4)c23)C1", 1.06),
]

These data points were gathered from PubChem BioAssay (NCI).
